Ref: the supplement of paper PMC12764529

The following sequences are shown together with reported folding stability dG unfold values.
- Experimental Details: folding stability dG unfold (combined trypsin and chymotrypsin); higher = more stable
Readout Label: folding stability dG unfold (kcal/mol)

> print(dat)
                                 seq.string  data.value
1  SAGGSAGGSDPTPVVVEFPFSSEEEAEKKAKEAAEKLKAEGVDIKEVKIEYDPEKGTVTLTLGSAGGSAGGS [r20_155_JUSTAS]        1.21
2  SAGGGMMTLVTLEITIPKPPDPKTGKSRPLPLTLEFEVEADDPEALEERVEEELEKIGIPEEARKLLSAGGS [r16_40_JUSTAS]       0.698
3  SAGGSAPPNWRRIEITFYIPPGQPTVSELADHIAKRIGFPVTGVEIDKVERNPDGAYEVKVSIIVPSAGGSA [r15_654_TrROS]        2.75
4  SAGKEIIIPFRDIPPKYIKNQLKKFPPGKEIRIMFPGPEVADYLKEKGFPVRPERIKPITPDDMAKMMNSAG [r5_354_TrROS]      -0.258
